These measurements were taken from patent US20080160035A1.

# maps each entry to its IC50
Study system: T1, dimeric hIL-4R-hFc (human, UniProt P24394 26-232)
T1 construct: also called hIL-4R-Fc; not shown: human Fc (hFc)
T1 sequence: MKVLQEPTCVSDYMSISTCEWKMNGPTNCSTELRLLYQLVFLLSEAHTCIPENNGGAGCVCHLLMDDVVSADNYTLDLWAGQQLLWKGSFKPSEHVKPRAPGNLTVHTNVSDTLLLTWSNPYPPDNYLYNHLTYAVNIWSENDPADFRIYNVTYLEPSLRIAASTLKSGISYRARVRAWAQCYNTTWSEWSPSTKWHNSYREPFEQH
Protocol description: ELISA; antibody titrated against 25 pM hIL-4R-Fc, free receptor caught on hIL-4 plate
Protocol: Concentration of free hIL-4R-Fc (no antibody bound) was determined using a hIL-4R-specific sandwich ELISA. […] After a one-hour incubation at room temperature, the detection plate was washed and plate-bound hIL-4R-hFc was detected using HRP conjugated goat anti-hFc polyclonal antibodies and developed using colorimetric substrates such as BD OptEIA™ (BD Biosciences Pharmingen, San Diego, Calif.). […]
Could you give me the number in nM? Just the number is fine.

For orientation, consider the following solved cases.
INSERT INTO results (binder, readout_name, units_of_measure, recorded_result) VALUES
  ('VAB 10C1-5 (antibody, V domains shown, Apparently tested with mouse constant region (anti-mouse IgG capture/detection)) VH: QVQLVETGGDLVRPGGSLRLSCTASGFTLSDYYMSWIRQAPGKGLEWVSYIRRSGNTIYYADSVKGRFTISRDNAKNSLYLQMNSLRAEDTAVYYCARGGDWADVWGQGTTVTVSS VL: DIQMTQSPSSLSASVGDRVTITCRASQGISIYLAWFQQKPGKAPKSLIYAASSLQRGVPSKFSGSGSGTDFTLTISSLQPEDFATYYCQQYNSYPYTFGQGTKLEIK', 'IC50', 'nM', 0.034),
  ('VAB 11G8-1 (antibody, V domains shown, Apparently tested with mouse constant region (anti-mouse IgG capture/detection)) VH: QVQLVQSGAEVKKPGASVKVSCKASGYTFTNYGISWVRQAPGQGLEWMGWISVYNGHTNYAQKLQGRVTMTTDTSTSTAYMELRSLRSDDTAVYYCARGSGYDFDSWGQGTLVTVSS VL: AIQMTQSSSSLSASVGDRVTITCRASQAIRNALGWYQQKPGKAPKVLIYAASSLQSGIPSRFSGSGSGTDFTLTISSLQPEDFATYYCLQDYDYPYTFGQGTKLEIK', 'IC50', 'nM', 0.24),
  ('VAK12B11-9 (antibody, V domains shown, Apparently tested with mouse constant region (anti-mouse IgG capture/detection)) VH: QVQLVESGGGVVQPGRSLRLSCAASGFTFSSYAMYWVRQAPGKGLEWVAVISYDGSNKYYTDSVKGRFTVSRDNSKNTLFLQMNSLRAEDTALYYCAKESSSYGLDVWGQGTTVTVSS VL: DIQMTQSPSTLSASVGDRVAITCRASQSISNWLAWYQQKPGKAPKLLISKASSLKSGVPSRFSGSGSGTEFTLTISSLQPDDFAAYYCQQYNSYSYTFGQGTKLEIK', 'IC50', 'nM', 0.099),
  ('VX 3F7-6 (antibody, V domains shown, 395/397; 399/401 without saying which was assayed; Apparently tested with mouse constant region (anti-mouse IgG capture/detection)) VH: EVQLVESGGGLVQPGGSLRLSCAASGFTFSSFWMTWVRQAPGKGLEWVANIKQDGSEKYYVDSVKGRFTISRDNAKNSLYLQMNSLRAEDTAVYYCARDPGRTMVRGGIRYYYGMDVWGQGTTVTVSS VL: DIQMTQSPSSVSASVGDRVTISCRASQGVSSWLAWYQQKPGNAPKLLISAASSIQSGVPSRFSGSGSGTDFTLTISSLQPEDFATYYCQQANSFPLTFGGGTKVEIK', 'IC50', 'nM', 0.274),
  ('VAK7G8-5 (antibody, V domains shown, Apparently tested with mouse constant region (anti-mouse IgG capture/detection)) VH: QVRLVESGGGVVQPGGSLRLSCTASGFIFRSYGMHWVRQAPGRGLEWVAVISYDGSKTFYVDSVKVRFTISRDNSKNTLYLEMNSLRVDDTAVYFCVKEGRSGSWFDPWGQGTLVAVSS VL: DIHMTQSPSSLSASVGDRVTITCRASQAINNFLAWFQQKPGKTPKSLIFATSSLQSGVPSRFSGSGSGTDFTLTISSLQPEDFATYYCQQYNSHPWTFGQGTKVEIR', 'IC50', 'nM', 0.027),
  ('VAB 7B9-3 (antibody, V domains shown, Apparently tested with mouse constant region (anti-mouse IgG capture/detection)) VH: QVQLVQSGAEVKKPGASVKVSCKDSAYTFNRYGISWVRQAPGQGLEWMGWISAYTGNTVYAQKLQGRVTMTTDNSTSTAYMELRSLRSDDTAVYYCARDKSIFGVVRGFDYWGQGTLVTVSS VL: EIVMTQSPVTLSLSPGERATLPCRASQSVSSSLAWYQQKAGQSPRLLIYGASTRATGIPARFSGSGSGTEFTLTISNLQSEDFAVYYCQQYNNWPLTFGGGTKVEIK', 'IC50', 'nM', 0.059),
  ('VAK11D4-1 (antibody, V domains shown, Apparently tested with mouse constant region (anti-mouse IgG capture/detection)) VH: QVRLVESGGGVVQPGRSLRLSCVASGFTFRSYGMHWVRQAPGRGLEWVAVISYDGSQTFYVDSVKVRFTISRDNSNNTLYLEMNSLRVDDTAVYFCVKEGRSGSWFDPWGQGTLVAVSS VL: DIHMTQSPSSLSASVGDRVTITCRASQAINNYLAWFQQKPGRTPKSLIFATSSLQSGVPSRFSGSGSGTDFTLTISSLQPEDFATYYCQQYNSHPWTFGQGTKVEIK', 'IC50', 'nM', 0.035),
  ('VAK10G12-5 (antibody, V domains shown, Apparently tested with mouse constant region (anti-mouse IgG capture/detection)) VH: QVQLVESGGGVVQPGGSLRLSCAASGFTFSSYGMHWVRQAPGRGLEWVAVLSYDGSKEFYADSVKVRFTVSRDNSKNTLYLQMSSLRVEDTAIYFCAKEGRTGNWFDPWGQGTLVAVSS VL: DIQMTQSPSSLSASVGDRVTITCRASQAINNFLAWFQQKPGKTPKSLIFATSSLQSGVPSRFSGSESGTDFTLTISSLQPEDFATYYCQQYNSHPWTFGQGTKVEIK', 'IC50', 'nM', 0.059),
  ('VAB 8G10-1 (antibody, V domains shown, Apparently tested with mouse constant region (anti-mouse IgG capture/detection)) VH: QVQLVQSGPEVKKPGASVKVSCKASGYTFTNYGISWVRQAPGQGLEWMGWISVYNGNINYAQKLQGRVTMTTDTSTSTAYMDLRSLRSDDTAVYYCARGSGYDFDYWGQGTLVTVSS VL: AIQMTQSPSSLSASVGDRVTITCRASQDIRNALGWYQQKPGKAPKLLIYAASSLQSGVPSRFSGSASGTDFTLTISSLQPEDFAAYYCLQDYNYPYTFGQGTKLEIK', 'IC50', 'nM', 0.244);

IC50 reading for VAK8G11-13 (antibody, V domains shown, Apparently tested with mouse constant region (anti-mouse IgG capture/detection)) VH: QVRLVESGGGVVQPGGSLRLSCAASGFIFRSYGMHWVRQAPGRGLEWVAVISYDGSKTFYVDSVKVRFTISRDNSKNTLYLEMNSLRVDDTAVYFCVKEGRSGSWFDPWGQGTLVAVSS VL: DIHMTQSPSSLSASVGDRVTITCRASQAINNFLAWFQQKPGKTPKSLIFATSSLQSGVPSRFSGSGSGTDFTLTISSLQPEDFATYYCQQYNSHPWTFGQGTKVEIK : 0.026
